FYI, the data here is from the supplement of paper PMC6555819.

# Tested on: PPARg DBDmut:RXRa IVT, anti-PPARg (DBD mutation: PPARg1 K132A/R137A, NR concentration 270 nM, RXRa partner concentration 90 nM)
# Assay Summary: PBM binding z-score (relative to random genomic background probes); higher = stronger binding; sequences stand for … in GC…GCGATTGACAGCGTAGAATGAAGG
Assign fulfilled to entries whose PBM binding z-score meets or exceeds 0.4; assign not fulfilled to the rest.

{"Sequence String": "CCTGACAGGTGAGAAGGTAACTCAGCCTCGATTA", "Assigned Label": "not fulfilled"}
{"Sequence String": "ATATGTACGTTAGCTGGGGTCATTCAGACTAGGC", "Assigned Label": "fulfilled"}
{"Sequence String": "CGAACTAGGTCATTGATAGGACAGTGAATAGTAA", "Assigned Label": "fulfilled"}

query: Please tell me: is the sequence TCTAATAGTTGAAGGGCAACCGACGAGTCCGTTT at or over 0.4 in terms of PBM binding z-score?
result: fulfilled

query: Input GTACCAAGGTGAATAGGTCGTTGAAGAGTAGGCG
result: not fulfilled

query: What about this sequence? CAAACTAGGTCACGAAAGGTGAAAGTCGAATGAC
result: fulfilled

query: Consider next the sequence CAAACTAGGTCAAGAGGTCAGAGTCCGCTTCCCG in the same way.
result: fulfilled

query: Same lookup for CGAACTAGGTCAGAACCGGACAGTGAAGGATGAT , please.
result: fulfilled

====

# System: RARb homodimer (NR concentration 270 nM)
# Assay Summary: PBM binding z-score (relative to random genomic background probes); higher = stronger binding; sequences stand for … in GC…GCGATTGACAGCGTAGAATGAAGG
PBM binding z-score of 3 or higher: 1 (yes). Under 3: 0 (no).

Worked set:
{"Sequence String": "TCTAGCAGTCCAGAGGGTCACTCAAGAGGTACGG", "Assigned Label": "0 (no)"}
{"Sequence String": "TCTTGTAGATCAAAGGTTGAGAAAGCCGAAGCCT", "Assigned Label": "0 (no)"}
{"Sequence String": "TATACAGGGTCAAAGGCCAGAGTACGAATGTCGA", "Assigned Label": "1 (yes)"}

query: Hi, just wondering whether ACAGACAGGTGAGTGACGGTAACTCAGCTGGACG shows PBM binding z-score of 3 or higher.
result: 0 (no)

query: # repeat for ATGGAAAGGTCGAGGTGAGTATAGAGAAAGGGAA
result: 1 (yes)

query: Same lookup for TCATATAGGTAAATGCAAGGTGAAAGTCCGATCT , please.
result: 0 (no)

query: Please answer likewise for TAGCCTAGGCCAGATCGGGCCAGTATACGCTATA
result: 0 (no)

query: What do you have for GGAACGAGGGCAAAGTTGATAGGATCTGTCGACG ?
result: 0 (no)

query: Similarly, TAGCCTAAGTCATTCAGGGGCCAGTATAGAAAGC ?
result: 0 (no)

query: Note, next up: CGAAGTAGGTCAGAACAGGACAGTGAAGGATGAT
result: 0 (no)

====

# Test system: LXRa homodimer (NR concentration 270 nM)
# Assay Summary: PBM binding z-score (relative to random genomic background probes); higher = stronger binding; sequences stand for … in GC…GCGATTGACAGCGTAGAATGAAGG
I'd be grateful if you could share measured PBM binding z-score for these entries.
Give bare numbers.

Known results for sequences:
{"Sequence String": "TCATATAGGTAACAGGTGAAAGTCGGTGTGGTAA", "Study System": "LXRa homodimer (NR concentration 270 nM)", "PBM binding z-score": 0.422}
{"Sequence String": "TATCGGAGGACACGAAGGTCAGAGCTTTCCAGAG", "Study System": "LXRa homodimer (NR concentration 270 nM)", "PBM binding z-score": 1.08}
{"Sequence String": "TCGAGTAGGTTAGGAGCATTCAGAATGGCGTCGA", "Study System": "LXRa homodimer (NR concentration 270 nM)", "PBM binding z-score": -0.756}
{"Sequence String": "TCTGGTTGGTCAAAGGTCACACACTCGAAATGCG", "Study System": "LXRa homodimer (NR concentration 270 nM)", "PBM binding z-score": 4.59}
{"Sequence String": "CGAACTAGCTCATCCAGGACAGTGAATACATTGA", "Study System": "LXRa homodimer (NR concentration 270 nM)", "PBM binding z-score": 0.0441}

query: Return reported PBM binding z-score; argument: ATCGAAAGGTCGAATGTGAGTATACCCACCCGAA
result: 0.69
